The values you see were collected from patent US6130228A.

Biological target: Butyrylcholinesterase (BChE) (Equus caballus, UniProt P81908)
Construct: purchased Sigma c-7512
Sequence (P81908 whole entry): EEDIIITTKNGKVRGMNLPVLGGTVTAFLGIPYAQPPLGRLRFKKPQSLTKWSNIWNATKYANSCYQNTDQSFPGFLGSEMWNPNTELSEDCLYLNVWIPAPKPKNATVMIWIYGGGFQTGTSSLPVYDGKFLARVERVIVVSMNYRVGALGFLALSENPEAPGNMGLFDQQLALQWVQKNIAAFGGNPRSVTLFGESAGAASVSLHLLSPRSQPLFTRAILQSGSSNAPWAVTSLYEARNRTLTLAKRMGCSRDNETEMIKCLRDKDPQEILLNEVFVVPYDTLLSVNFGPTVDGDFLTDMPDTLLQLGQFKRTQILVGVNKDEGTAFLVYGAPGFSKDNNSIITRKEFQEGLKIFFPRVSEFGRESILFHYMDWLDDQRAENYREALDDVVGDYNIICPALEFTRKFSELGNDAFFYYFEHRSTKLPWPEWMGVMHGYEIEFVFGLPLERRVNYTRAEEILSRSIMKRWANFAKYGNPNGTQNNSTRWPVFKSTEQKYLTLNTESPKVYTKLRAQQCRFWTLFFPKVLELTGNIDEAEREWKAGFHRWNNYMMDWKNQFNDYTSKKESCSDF
Assay: biochemical
Settings: Table 2; read-out: BChE IC50
parameter.measured: log10 of IC50 (log10 of the value in µM)
Units before log transform: µM; reported quantity: IC50; transform: log10.

Inquiry: Report log10 of IC50, nothing else, for this compound: Nc1c2c(nc3ccc(F)c(F)c13)CCC2 [Compound 10]
Reply text: 1.18

Inquiry: Respond only with log10 of IC50 recorded for Nc1c2c(nc3c(F)cccc13)CCC2 [Compound 13]
Reply text: -0.57

Inquiry: Identify measured log10 of IC50 associated with Cc1cc(C)c2c(N)c3c(nc2c1)CCC3 [Compound 30]
Reply text: -0.15

Inquiry: In one line, give reported log10 of IC50 of the entry Cc1cc(C)c2nc3c(c(N)c2c1)CCC3 [Compound 23] .
Reply text: 1.72

Inquiry: State its log10 of IC50 for this compound: Nc1c2c(nc3c(F)ccc(F)c13)CCC2 [Compound 31]
Reply text: 0.68

Inquiry: Answer with reported log10 of IC50 of Nc1c2c(nc3ccc(Cl)cc13)CCC2 [Compound 19]
Reply text: 0.12

====

Target: Butyrylcholinesterase (BChE) (Equus caballus)
Construct: purchased Sigma c-7512
Assay: biochemical
parameter.measured: BChE TACRINE RATIO

Inquiry: Answer with the recorded BChE TACRINE RATIO of Nc1c2c(nc3ccccc13)CCC2 [Compound 29] only.
Reply text: 0.481

Inquiry: Note BChE TACRINE RATIO for the molecule shown: Nc1c2c(nc3ccc(F)c(F)c13)CCC2 [Compound 10]
Reply text: 0.002

Inquiry: Report measured BChE TACRINE RATIO; entry is Nc1c2c(nc3cc(F)ccc13)CCC2 [Compound 15]
Reply text: 0.610

Inquiry: Specify BChE TACRINE RATIO for Nc1c2c(nc3c(F)cccc13)CCC2 [Compound 13] and stop.
Reply text: 0.093

Inquiry: Given the molecule Nc1c2c(nc3cc(Cl)ccc13)CCC2 [Compound 17] , write its reported BChE TACRINE RATIO.
Reply text: 0.19

Inquiry: Determine from records and report BChE TACRINE RATIO for Nc1c2c(nc3cc(F)c(F)cc13)CCC2 [Compound 8]
Reply text: 0.003

Inquiry: Tell me its BChE TACRINE RATIO given Nc1c2c(nc3c(F)ccc(F)c13)CCC2 [Compound 31] as the entry.
Reply text: 0.005

Inquiry: Provide one value: measured BChE TACRINE RATIO of Nc1c2c(nc3cccc(Cl)c13)CCC2 [Compound 16]
Reply text: 0.047

Inquiry: Given the molecule c1ccc(CNc2c3c(nc4ccccc24)CCC3)cc1 [Compound 28] , write its reported BChE TACRINE RATIO.
Reply text: 0.002

Inquiry: Note down BChE TACRINE RATIO recorded for Cc1ccc2nc3c(c(N)c2c1)CCC3 [Compound 24]
Reply text: 0.023
